B1: Kinesin-like protein KIF16B, residues 1213 to 1273; numbered along this chain, Q96L93 (parent)
chain: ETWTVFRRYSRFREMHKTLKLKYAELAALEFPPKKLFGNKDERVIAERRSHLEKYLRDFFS

Variants of: B1
assay_comment: abundance fitness (aPCA) (normalised: wild type 0, dead -1); higher = more abundant; growth selection in yeast, the domain comes from the species named
test_parameters: Homo sapiens
We'd kindly ask you to apply these abundance fitness classes: lower bin: < -0.4; middle bin: ≥ -0.4 and < -0.08; upper bin: ≥ -0.08

variant_id=W3A label_value="lower bin"
variant_id=R49C label_value="upper bin"
variant_id=G38E label_value="middle bin"
variant_id=H16S label_value="middle bin"
variant_id=K35M label_value="middle bin"
variant_id=H16N label_value="middle bin"
variant_id=L26T label_value="lower bin"
variant_id=N39V label_value="upper bin"
variant_id=T18S label_value="middle bin"
variant_id=N39F label_value="middle bin"
variant_id=V44C label_value="upper bin"
variant_id=H51R label_value="upper bin"
variant_id=N39A label_value="upper bin"
variant_id=F6A label_value="middle bin"
variant_id=L36T label_value="lower bin"
variant_id=F31D label_value="lower bin"
